growth values by entry
# System: NCI-H522 lung
# ASSAY_INFO: NCI-60 one-dose screen, 48 h (100 = growth as untreated, 0 = no growth, -100 = all killed)
# RUN_PARAMETERS: 10 µM unless noted
About 83,000 compounds went through this panel and 20% of them were active in at least one assay; those are over-represented in the sample as a whole.
Lab book: enter the figure in %, no units written.

Check out these entries, answers already filled in.
MOLECULE	REPORTED
CC(C)C(C(=O)CCN(C)C)c1ccc(Cl)cc1 (stereo not given)	74.2
COc1ccc(-c2cn[nH]c2-c2cc(OC)c3c(c2)OCO3)cc1	-43.9
C=C1C(=O)O[C@H]2[C@H]1CC/C(COC(=O)NCCc1cccc(OC)c1)=C\CC[C@@]1(C)O[C@@H]21	-30.8
Cc1ccc2c(c1)C(C)Cc1c(ncnc1-n1cnc3ccccc31)N2C (stereo not given)	-15.3
COc1cc(CCn2nnc3c(Nc4ccc(N5CCOCC5)cc4)ncnc32)cc(OC)c1	88.5

Now consider the entry below.
Q) // map O=c1oc2c([nH]c3ccc4ccccc4c32)c2ccccc12 to recorded growth (system: NCI-H522 lung)
A) 102

###

# Test system: SK-MEL-28 melanoma
# ASSAY_INFO: NCI-60 one-dose screen, 48 h (100 = growth as untreated, 0 = no growth, -100 = all killed)
# RUN_PARAMETERS: 10 µM unless noted
Compounds without any hit were thinned out: in the full panel of roughly 83,000, 20% have a hit.
Criterion: growth strictly under 60%. Met: met. Not met: not met.

# example entries with known answers
> print(dat)
                                   molecule  category.label
1  Cn1c(=O)c2c(nc3n2CCN(CCc2ccc(OCCN4CCOCC4)cc2)C3)n(C)c1=O         not met
2  COc1cc(OC)c(C(=O)/C=C/c2cccc(C(F)(F)F)c2)c(OC)c1             met
3  Cc1cc(C)c(NC(=O)c2sc3nc4c(cc3c2N)CN(Cc2ccccc2)CC4)c(C)c1             met
4             O=C(NNC(=S)Nc1ccccc1)c1ccccn1             met
5  CCOC(=O)C1=C(C)NC(=O)NC1c1ccc(OCC(=O)N/N=C/c2ccc(Cl)cc2)cc1 (stereo unspecified)         not met
6  c1ccc2c(c1)Oc1ccccc1C2C1c2ccccc2Oc2ccccc21         not met

Q) For NCCSC(c1ccccc1)(c1ccccc1)c1ccccc1 , is the recorded growth below the cut-off of 60%?
A) met

Q) And then Nc1c(C(=O)Nc2ccccc2)sc2nc3c(cc12)CCCCC3 , what is it?
A) met

Q) And then CCCCCCc1nc2c(c(C)nn2-c2ccccc2)c2c1CCCCC2 , what is it?
A) not met

Q) And then CN(C)C/C=C/C(=O)Nc1cc2c(Nc3cccc(Cl)c3F)ncnc2cc1OCCOC(F)F , what is it?
A) not met

Q) And then CCC1CCc2nc3sc(C(=O)Nc4cccc(C)c4)c(N)c3cc2C1 (stereo unspecified) , what is it?
A) not met

###

# Test system: SK-MEL-5 melanoma
# ASSAY_INFO: NCI-60 one-dose screen, 48 h
# RUN_PARAMETERS: 10 µM unless noted
This is part of a sample that, as a whole, favours compounds with a hit. Of some 83,000 tested, about 20% had one in any assay. Activity calls are given as the source filed them. Rule for the calls: active = growth percent below 10; inactive = the rest.
A correct response names exactly one class from True = active, False = inactive

> print(dat)
                                   molecule     assayed.system  category.label
1  COC1=CC(c2ccc[nH]2)=N/C1=C\c1[nH]c(C)c(C(=O)CCCCC(=O)NCc2ccccc2)c1C  SK-MEL-5 melanoma           False
2    Cc1sc(N=Nc2ccc(N(C)C)cc2)[n+]([O-])c1C  SK-MEL-5 melanoma           False
3      Clc1ccc(-c2nc(-c3ccco3)cn3ccnc23)cc1  SK-MEL-5 melanoma           False
4  O=C(OCCCCOC(=O)n1cnc2ccccc21)n1cnc2ccccc21  SK-MEL-5 melanoma           False
5  Cc1cc(Nc2nc(C(=O)Nc3ccccc3)nc3ccccc23)n[nH]1  SK-MEL-5 melanoma           False

Q) Per the assay record, what outcome was assigned to COc1cc(-n2nc(C(=O)Nc3ccc(C(=O)O)cc3)nc2-c2ccccc2)cc(OC)c1OC ?
A) False

Q) And then COc1ccc(NC(=O)CSc2nc3ccc(Cl)cc3c(=O)n2-c2ccccc2C(F)(F)F)c(OC)c1OC , what is it?
A) False

Q) And then CC(=O)c1cc(C(=O)c2ccc3c(c2)Sc2ccccc2N3)c2cc(C)ccn12 , what is it?
A) True

Q) And then C=C1C(=O)O[C@H]2[C@H](O)[C@@H](C)CCC/C(C)=C/CC[C@@]3(C)O[C@@H]3C[C@@H]12 , what is it?
A) False

Q) And then CCN1C(=O)N(CC)C2C1NN=c1s/c(=C3\C(=O)N(C4CCCC4)c4ccccc43)c(=O)n12 (stereo not drawn) , what is it?
A) False

Q) And then O=c1oc2cc(OS(=O)(=O)c3ccc(F)cc3)ccc2c2c1CCCCC2 , what is it?
A) False

Q) And then COc1ccc(-c2cn[nH]c2-c2cc(OC)c3c(c2)OCCO3)cc1 , what is it?
A) False

Q) And then COc1ccc(C(=O)/C=C/c2cccc([N+](=O)[O-])c2)c(OC)c1 , what is it?
A) False

Q) And then Nc1nc(-c2ccccc2)cs1 , what is it?
A) False

Q) And then O=c1[nH]c(-c2cn(-c3ccc(Cl)cc3)nn2)nc2ccccc12 , what is it?
A) False

Q) And then Cc1cc(NC(=O)COC(=O)c2sc3cc(F)ccc3c2Cl)no1 , what is it?
A) False

Q) And then CC(C)(C)c1cn2cccc(C(=O)N3CCN(CC(=O)Nc4ccc(Cl)cc4C(=O)c4ccccc4Cl)CC3)c2n1 , what is it?
A) False

Q) And then COc1cc2nc(N3CCC[C@@H](NC4=CC(=O)c5ccccc5C4=O)C3)nc(N)c2cc1OC , what is it?
A) False
